system: SF-295 CNS; test: NCI tumour cell line growth inhibition, 48 h; in the data active = GI50 below about 0.43 µM; inactive = the rest
Give your call using only these classes: active, inactive

## Input # fetch the recorded call for COc1cccc2c1nc(C(F)F)n2-c1nc(-c2ccc(NS(=O)(=O)CCN(C)C)cc2)nc(N2CCOCC2)n1 here
## Output active

## Input Also check N#CCCNc1nonc1-c1nc2ccccc2n1CC(=O)c1ccc(N)cc1
## Output active

## Input Also check O=c1nc2n(-c3cccc(Cl)c3)c3ccc([N+](=O)[O-])cc3cc-2c(=O)[nH]1
## Output inactive

## Input Also check CN1CCN(Cc2ccc(NC(=O)c3cncc(C#Cc4cnc(N)c5ncccc45)c3)cc2C(F)(F)F)CC1
## Output inactive

## Input Also check O=C([CH-]C(=O)c1ccccc1)c1ccccc1.O=C([CH-]C(=O)c1ccccc1)c1ccccc1.O=C([CH-]C(=O)c1ccccc1)c1ccccc1.[Ga+3]
## Output inactive

## Input Also check CCOc1ccc(N(C)c2ccc(/C=C/C3=[N+](C)c4ccccc4C3(C)C)cc2)cc1
## Output inactive

## Input Also check NS(=O)(=O)c1ccc(N(/C=C/C(=O)C(F)(F)F)CC(=O)c2ccc(F)cc2)cc1
## Output inactive

## Input Also check CN1C(=O)C(c2c[nH]c3ccccc23)=C(c2c[nH]c3ccccc23)C1=O
## Output inactive

## Input Also check COc1cc2c(c3oc(-c4ccc(O)cc4)c(O)c(=O)c13)CCC(C)(C)O2
## Output active
